test: MRP1 drug-resistance reversers in H69AR cells – cell-based, doxorubicin co-treatment, pilot screen (AID 601); details: H69AR cells, CellTiter-Glo, 72 h; compound alone cytotoxicity; at 10 µM
# note: boundary value 90% maps to label 0; viability below it maps to label 1

compound	discrete label
O=C1c2ccccc2C(Nc2ccc(F)c(Cl)c2)N1Cc1ccco1 (configuration not stated)	label 1
COc1ccc(S(=O)(=O)N2CCC(C(=O)Nc3c(F)cccc3F)CC2)cc1	label 0
CCN1CCN(C(=O)Cn2ncc3ccsc3c2=O)CC1	label 0
O=C(c1cnccn1)N(c1ccccc1)C1(C(=O)NC2CCCC2)CCCCC1	label 0
C=C(C)Cn1c(-c2ccccc2)nc2ccccc21	label 0
O=C1C/C(=C/NCc2ccccc2)C(=O)N1	label 0
Cc1ccc(-c2cc(C(F)(F)F)n3nc(C(=O)N4CCCC4)cc3n2)cc1	label 0

Now, please, on to the next compound.
[in] I'd appreciate it if you could check whether NC(=O)C1CCN(C(=O)c2cc3n(n2)C(C(F)(F)F)CC(c2ccco2)N3)CC1 (configuration not stated) has viability smaller than 90%.
[out] label 1

----------
experiment: H69AR cell proliferation blockers – human, duplicate replicates, primary screen (AID 580); settings: H69AR lung tumor cells viability, ATP luminescence, 72 h; at 10 µM; stronger effect = lower value;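 also: 100% = mean luminescence of untreated wells and 0% = no signal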
readout name: viability (%)
Respond with the bare value in %.

molecule	viability (%)
CCNc1ccc(C(=O)OCC)cc1NC(=O)c1cc(S(=O)(=O)N2CCOCC2)ccc1C	98.5
CCOCC(=O)Nc1nc2c(s1)C(=O)CC(C)(C)C2	83.7
O=C(c1ccco1)N1CCN(C2=NS(=O)(=O)c3ccccc32)CC1	94.8

[in] Fill in: viability of C=CCOC(=O)COc1ccc2c(C)c(C)c(=O)oc2c1C is ___
[out] 125

[in] Entry to check: COc1ccccc1C(=O)NCCc1nc2ccccc2n1C
[out] 101

----------
experiment: reduced viability of SK-BR-3 breast cancer cells – cell-based, 24 h, human, pilot screen (AID 572); settings: SK-BR-3 viability, CellTiter-Glo luminescence, at 10 µM, stronger effect = lower value;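 also: compound exposure lasted between 18 and 24 h rather than exactly 24 h; 100% = carrier-treated control wells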
Measured viability values are reported for all entries that follow.
Your answer should be a plain number; it is taken to be in %.

[in] Request the reported viability associated with CCSc1nnc(N2C(=O)CC(c3ccsc3)C3=C2CC(C)(C)CC3=O)s1 (configuration not stated)
[out] 89

[in] Similarly, CC(C)(C)NC(=O)CC(CC(=O)O)c1ccccc1 (configuration not stated) ?
[out] 112

[in] How about this compound: COc1ccc(NC(=O)CSc2nc3c(c(=O)n2-c2ccccc2OC)SCC3)cc1
[out] 102

[in] And for CC(Sc1nc(-c2ccccc2)cc(C(F)(F)F)n1)C(=O)N1CCCC1 (configuration not stated) ?
[out] 84.5

[in] Query CCOC(=O)c1ccccc1NC(=O)CSc1nccn1C next
[out] 89

[in] What would you report for CCOC(=O)Cn1c(=O)c(-c2ccccc2N)nc2ccccc21 ?
[out] 101

[in] Follow-up item: O=c1[nH]c(SCc2ccc(F)cc2)nc2c1cnn2-c1ccc(F)cc1
[out] 69

[in] Record: COc1ccc(C2CC(c3ccc(Cl)cc3Cl)Nc3nc(N)nn32)cc1 (configuration not stated)
[out] 94

[in] Repeat for the following compound: CCOC(=O)N1CCN(c2cc(=O)n(-c3ccccc3Cl)c(=O)[nH]2)CC1
[out] 98.5

[in] // repeat for Nc1nc(N2CCCCC2)nc(N(c2ccccc2)c2ccccc2)n1 and report
[out] 107

[in] Field entry: COc1cccc(C2=NOC(C(=O)N3CCc4ccccc4C3)C2)c1 (configuration not stated)
[out] 87

[in] Then O=C(c1cc2ccccc2oc1=O)N1CCN(c2ccc(N3CCOCC3)nn2)CC1 ?
[out] 98

[in] Another compound: COCCCN1C(=O)C(=O)/C(=C(/O)c2ccc(OCC(C)C)cc2C)C1c1cccnc1 (configuration not stated)
[out] 109

[in] Also COc1ccc(CCNC(=O)c2cnn3ccccc23)c(OC)c1OC ?
[out] 92.5

[in] Now give it for CCCCN(C(=O)c1ccc(Cl)cc1)C1CC2CCC(C1)N2C (configuration not stated) too.
[out] 87.5

[in] Now consider Cn1c(=O)c2c(nc(SCCCC#N)n2Cc2c(F)cccc2Cl)n(C)c1=O and answer again.
[out] 102

[in] Another: O=C(C1CCN(c2nnc(-n3cccc3)s2)CC1)N1CCc2ccccc2C1
[out] 88

[in] Lookup Cc1cc(C)nc(SCc2ccc3nonc3c2)n1
[out] 99

[in] Queued: CCc1cc(=O)n2[nH]c(C)c(-c3ccccc3OC)c2n1
[out] 80.5

[in] Now this one: C=CCSc1nnc(Cc2c(C)[nH]c3ccccc23)o1
[out] 90.5

[in] Can you handle Cc1cccc(N2C(=O)CC(N3CCN(c4cccc(C(F)(F)F)c4)CC3)C2=O)c1 (configuration not stated) next?
[out] 94.5

[in] Further, for O=C(CSc1nnc(Cn2c(=O)sc3ccccc32)n1-c1ccccc1)Nc1nccs1 ?
[out] 97
